Molecular target: Activin receptor type-1 (Homo sapiens, UniProt Q04771, G328V)
Sequence (Q04771 21-509 G328V limits assumed): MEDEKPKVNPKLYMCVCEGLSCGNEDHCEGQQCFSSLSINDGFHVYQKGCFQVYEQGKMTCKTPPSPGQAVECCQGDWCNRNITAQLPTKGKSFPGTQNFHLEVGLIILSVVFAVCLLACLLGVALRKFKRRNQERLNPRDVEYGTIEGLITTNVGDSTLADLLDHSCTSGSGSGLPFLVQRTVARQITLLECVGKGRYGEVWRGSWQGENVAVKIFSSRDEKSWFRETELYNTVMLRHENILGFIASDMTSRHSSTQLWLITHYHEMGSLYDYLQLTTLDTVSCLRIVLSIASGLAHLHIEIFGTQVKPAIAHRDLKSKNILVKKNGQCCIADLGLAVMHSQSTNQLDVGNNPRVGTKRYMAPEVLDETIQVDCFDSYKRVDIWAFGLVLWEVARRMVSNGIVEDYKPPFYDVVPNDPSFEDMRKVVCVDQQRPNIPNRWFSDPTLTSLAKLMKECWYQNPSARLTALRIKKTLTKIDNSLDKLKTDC
Test: Inhibition of ALK2 G328V mutant (unknown origin)
Item-by-item account of IC50

sample smiles	IC50
COc1cc(-c2cncc(-c3ccc(N4CCN(C)CC4)cc3)c2C)cc(OC)c1C(N)=O	< 2 nM
COc1cc(-c2cncc(-c3ccc(N4CCNCC4)cc3)c2C)cc(Cl)c1C(N)=O	< 2 nM
COc1cc(-c2cncc(-c3ccc(N4CCNCC4)cc3)c2C)cc(F)c1C(N)=O	4 nM
COc1cc(-c2cncc(-c3ccc(N4CCNCC4)cc3)c2C)ccc1C(N)=O	5 nM
COc1cc(-c2cncc(-c3ccc(N4CCN(C)CC4)cc3)c2C)cc(F)c1C(N)=O	16 nM
Cc1c(-c2ccc(N3CCNCC3)cc2)cncc1-c1ccc2c(c1)CNC2=O	171 nM
